Biological target: T1, SWSAP1 K18A (Walker A);hSWS1 (Homo sapiens;Homo sapiens, UniProt Q6NVH7;Q19AV6 22-250;1-140, K39A|)
T1 sequence 1: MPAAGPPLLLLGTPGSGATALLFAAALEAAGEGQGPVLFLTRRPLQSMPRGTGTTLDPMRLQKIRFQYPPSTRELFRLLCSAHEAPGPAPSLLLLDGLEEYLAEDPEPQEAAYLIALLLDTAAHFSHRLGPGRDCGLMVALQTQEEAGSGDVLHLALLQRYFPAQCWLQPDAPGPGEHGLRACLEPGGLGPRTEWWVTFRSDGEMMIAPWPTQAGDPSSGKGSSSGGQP
T1 sequence 2: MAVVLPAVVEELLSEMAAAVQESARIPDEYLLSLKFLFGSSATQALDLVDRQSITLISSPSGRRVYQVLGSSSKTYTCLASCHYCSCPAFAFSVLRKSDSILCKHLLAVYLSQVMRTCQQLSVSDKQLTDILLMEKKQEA
Assay: fluorescence polarization; 2 mM ATP; FPA: 5 nM 6-FAM DNA, 37 C, 2 mM nucleotide where stated (buffer not given in material); EMSA: 0.05 uM 6-FAM DNA, 5%/15% native PAGE; RAD51 filaments: 2 mM ATP
Conditions: protein: recombinant;recombinant; tags: N-terminal 6xHis-TEV, cleaved;none; copies: 1;1; label: 3' 6-FAM on strand 1; 5' overhang 20 nt
measureName: pKd
Scale for pKd: -log10 of concentration given in mol/L; no unit attached.

// query Query: pKd; subject: 5'-overhang (dsDNA) DNA 1: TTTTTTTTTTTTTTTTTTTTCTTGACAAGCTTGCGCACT DNA 2: AGTGCGCAAGCTTGTCAAG
// result 5.41
